experiment: HUVEC growth inhibition – cell-based, human, primary screen (AID 575); settings: HUVEC proliferation, CellTiter-Glo luminescence, 72 h; at 10 µM; hits give low values;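 further: 100% = median of untreated cell wells with 0.1% DMSO on each plate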
Endpoint name: viability (%)

• C=CCn1c(COc2ccccc2)nnc1SCC(=O)C(C)(C)C = 102
• O=C(CCCCCN1C(=O)CCC1=O)NCc1ccccc1 = 100
• CCN(CCCNC(=O)CC1Oc2ccc(C)cc2NC1=O)Cc1ccccc1 (centres undefined) = 97.8
• O=C(Cn1nc(-c2ccc3c(c2)OCCO3)ccc1=O)Nc1ccc(N2CCOCC2)cc1 = 112
• COCCCNC(=O)c1ccc2c(c1)OCO2 = 89.9
• CSCC[C@@H](Nc1nc(-c2ccccc2)nc2c1oc1ccccc12)C(=O)O = 84.2
• COc1ccc(OC)c(CNC(=O)COc2cc(=O)n(C)c3ccccc23)c1 = 105
• FC(F)(F)c1nnc2sc(-c3cccs3)nn12 = 93.9
• Cc1nnc(SCC(=O)N2c3ccccc3CC2C)s1 (centres undefined) = 99.3

====

assay: 384-well plate pilot, post-Golgi transport modulator project, inhibition of yeast transport mutant growth (AID 636); conditions: absorbance 615 nm, about 18 h, hits give high values
Endpoint name: inhibition (%)

* Cc1cc(C)n(-c2ccc(C(=O)Oc3ccc4c(c3)OCO4)cc2)n1 | -4.13
* COc1cc(-c2nnc(SCC(=O)c3cc(C)n(CC4CCCO4)c3C)o2)cc(OC)c1OC (configuration not stated) | -5.95
* CCOc1ccc(OCC)c(NC(=O)CN2CCN(C(=O)c3ccco3)CC2)c1 | 4.81
* N#Cc1c(/N=C/c2cccs2)sc2c1CCCCC2 | -5.33
* CCc1cc2c(=O)n(C(C)C(=O)OC3CCCCC3)cnc2s1 (configuration not stated) | -6.62
* c1ccc(N=P(c2nc3ccccc3o2)(N2CCOCC2)N2CCOCC2)cc1 | -4.27
* O=C(CSc1nnnn1Cc1ccccc1)Nc1ccc2c(c1)OCO2 | -5.54
* O=C(Nc1cccnc1)Nc1ccc2c(c1)OCO2 | -2.24
* CCN(CCCNC(=O)C1CCCN(S(=O)(=O)c2cnc[nH]2)C1)c1ccccc1 (configuration not stated) | -1.87
* O=C(C1CC1)N1CCC(c2nc(-c3ccc(S(=O)(=O)NCC4CCCO4)cc3)no2)CC1 (configuration not stated) | 0.41
* CCCc1[nH]nc2c1C(c1cccc(OC(=O)c3ccco3)c1)C(C#N)=C(N)O2 (configuration not stated) | -3.16
* Cc1ccc(S(=O)(=O)N2CCOCC(=O)NCCOCCNC(=O)COCC2)cc1 | -4.13

====

experiment: SK-BR-3 cell growth inhibitors, pilot screen, 24 h, human (AID 572); conditions: SK-BR-3 viability, CellTiter-Glo luminescence, at 10 µM, hits give low values;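 further: compound exposure lasted between 18 and 24 h rather than exactly 24 h; 100% = carrier-treated control wells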
viability by entry:
Endpoint name: viability (%)

- COc1cc(-c2nnc(SCC(=O)c3ccc(C)cc3)o2)cc(OC)c1OC: 90
- O=c1[nH]c(/C(=N\O)c2ccccc2)no1: 93.5
- COCCn1c(SCC(=O)Nc2nnc(C)s2)nnc1-c1c[nH]c2ccccc12: 104
- CCCCCCn1c(SCCCC)nc2c1c(=O)[nH]c(=O)n2C: 93.5
- CCCCc1c(O)nc(SCC(=O)c2ccccc2)[nH]c1=O: 105
- Cc1cnc(SCCc2ccncc2)nc1C: 97
- Cn1c(=O)c2c(nc(SCC(=O)NCc3ccco3)n2C)n(C)c1=O: 116
- COc1ccc(OC)c(C2=NOC(C(=O)NCCN3CCOCC3)C2)c1 (centres undefined): 107
- CS(=O)(=O)c1ccc2nc(NC(=O)C3C4C=CC(C4)C3C(=O)O)sc2c1 (centres undefined): 96
- O=c1c2ccccc2sn1-c1ccc(S(=O)(=O)N2CCCCC2)cc1: 91.5
- O=C(NCC(F)(F)F)N1CCOCC1: 96
- CCOC(=O)N1CCN(c2c(N3CCN(c4ccccn4)CC3)c(=O)c2=O)CC1: 104
- Cc1cccc(N2CCN(Cc3c(C)n(C)n(-c4ccccc4)c3=O)CC2)c1C: 83.5
- CN(C)C(=O)N1CCC(C(=O)NC2CCCCCCC2)CC1: 90
- CCOC(=O)Cn1nnnc1C(C(C)C)N(Cc1cc2c(C)cc(C)cc2[nH]c1=O)C1CCCC1 (centres undefined): 98
- CCOC(=O)c1cnc(SCC)[nH]c1=O: 84.5
- Cc1ccc(-n2c(=O)c3sccc3n(CC(=O)NCc3ccco3)c2=O)cc1: 107
- Cc1ccc(S(=O)(=O)NCCN2CCOCC2)cc1C: 88.5
- O=c1cc(COn2nnc3ccc(C(F)(F)F)cc32)nc2sccn12: 89.5

====

inhibition by entry:
assay: 384-well plate pilot, post-Golgi transport modulator project, inhibition of yeast transport mutant growth (AID 636); details: absorbance 615 nm, about 18 h, hits give high values
Active and inactive are the calls of the source. Rule as the data show it: active = inhibition above about 31%; inactive = the rest.
Endpoint name: inhibition

• CC1CN(C(=O)c2scc3c2OCCO3)CC(C)O1 (stereo not drawn) = -7.3% (inactive)
• CC(=O)N1CCN(Cc2ccc(Br)s2)CC1 = -3.51% (inactive)
• CN1CCN(CCCNC(=O)C2CC(=O)N(C3CCCCC3)C2)CC1 (stereo not drawn) = -4.47% (inactive)
• CN1CCCC(OC(=O)COc2ccc(Br)cc2)C1 (stereo not drawn) = -0.8% (inactive)
• COc1ccc(-c2noc(CN(C(=O)C(C)(C)C)C(C)C)n2)cc1 = -4.61% (inactive)
• COC(=O)Nc1ccc(C)cc1NC(=O)OC = 0.67% (inactive)
• Cc1nn(-c2ccccc2)c(Cl)c1C(=O)NCC(=O)O = -6.45% (inactive)
• COc1ccc(CC(=O)NC2CCN(CC(=O)Nc3ccc4c(c3)OCCO4)CC2)cc1OC = -2.37% (inactive)
• Cc1nc(N2CCOCC2)[nH]c(=O)c1CCC(C)C = -1.58% (inactive)
• CCn1c(SCC(=O)Nc2nccs2)nnc1-c1ccncc1 = -2.11% (inactive)
• Cn1c(C(=O)NCC2CCCO2)cc2c(=O)[nH]c3ccccc3c21 (stereo not drawn) = -4.67% (inactive)
• Cc1ccc(CN2C(=O)CCC2C(=O)NC2CCCC2)cc1 (stereo not drawn) = -6.13% (inactive)
• CCn1nc(CC(=O)Nc2nnc(CC(=O)N3CCCCC3)s2)c2ccccc2c1=O = -0.52% (inactive)
• C=CCN(C(=O)CNS(=O)(=O)c1ccccc1)C(C(=O)NCCOC)c1ccncc1 (stereo not drawn) = -4.27% (inactive)
• COCc1ccccc1Cn1cnc2c1c(=O)n(C)c(=O)n2C = -5% (inactive)
• CN(CC(=O)Nc1ccc2c(c1)OCCO2)S(=O)(=O)c1ccc(Br)s1 = -2.63% (inactive)
• COCCNC(=O)CN(C)S(=O)(=O)c1ccc2c(c1)OCCO2 = -4.8% (inactive)
• COc1ccc2nc(NC(=O)C3CCCN(S(=O)(=O)c4cccc5nsnc45)C3)sc2c1 (stereo not drawn) = 4.53% (inactive)

====

assay: SK-BR-3 cell growth inhibitors, pilot screen, 24 h, human (AID 572); details: SK-BR-3 viability, CellTiter-Glo luminescence, at 10 µM, hits give low values;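 further: compound exposure lasted between 18 and 24 h rather than exactly 24 h; 100% = carrier-treated control wells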
viability by entry:
Endpoint name: viability (%)

- C[N+]1=C2CCCCCN2C(O)(c2ccccc2)C1 (stereo not drawn): 97
- Cc1nnc(SCc2cnc(-c3ccccc3)o2)[nH]c1=O: 94
- CCOC(=O)c1cccc(NC(=O)CSc2nnc(-c3cccnc3)n2CC)c1: 88.5

====

experiment: growth suppression of yeast trafficking mutant, preliminary HTS, modulators of trafficking downstream of Golgi apparatus project, 1536-format plate, OD 615 nm (AID 637); details: yeast transport mutant growth, absorbance 615 nm, 18 h; hits give high values
inhibition by entry:
Endpoint name: inhibition (%)

- COc1ccccc1N1CCN(C(=O)c2ccc(S(=O)(=O)N3CCCCCC3)cc2)CC1: -3.44
- CC1CCN(C(=O)Cn2c(=O)oc3ccccc32)CC1: -6.55
- COc1ccccc1NC(=O)CSC1CC(=O)N(c2ccc3c(c2)OCO3)C1=O (stereo not given): 0.16
- Cc1ccc(NC(=O)CSc2nnc(CSc3nc(C)cc(C)n3)n2Cc2ccco2)c(C)c1: -6.72
- O=C(Cn1cnc2c(oc3ccccc32)c1=O)N1CCN(c2ccccc2)CC1: 3.65
- CC(=O)Nc1ccc2c(c1)nc(CCNC(=O)c1ccccc1)n2C: -1.43
- COc1ccccc1C1/C(=C(\O)c2c(C)nc3c(C)cccn23)C(=O)C(=O)N1CCCN(C)C (stereo not given): 5.67
- Cc1ccc(-c2nnn(CC(=O)NC3CC4CCC3C4)n2)cc1 (stereo not given): -6.77
- CCCOc1cccc(-c2nnc(N)s2)c1: -5.56
- COc1ccc(Br)cc1CNC(=O)C1CCCN(S(C)(=O)=O)C1 (stereo not given): 10.2
- CCN(CC)CCOC(=O)c1c(C)oc2ccc(O)cc12: -6.94
- CCOc1ccccc1N1CCN(c2nc(N)c(C#N)c(CC#N)c2C#N)CC1: 5.64
- CCN(CC)C(=O)c1sc(NC(=O)c2ccco2)c(C#N)c1C: -7.26
- COc1ccc(N2CCN(Cc3nc(-c4ccc(Cl)cc4Cl)no3)CC2)cc1: -5.57
- CN1CCN(CC(=O)Nc2ccc(Cl)cc2Cl)CC1: 2.74
- COCCn1c(SCC(=O)Nc2cccc(OC)c2)nnc1-c1ccc(Cl)cc1: 0.98
- N#CCc1c(C#N)c(N)nc(N2CCN(S(=O)(=O)c3ccccc3)CC2)c1C#N: 0.16
- O=C1CSC(=Nc2ccc(O)cc2)N1c1ccc(O)cc1: -1.64
- O=C(COc1ccc(S(=O)(=O)NC2CCCCC2)cc1Cl)NCC1CCCO1 (stereo not given): -7.78
- O=C(C1CCCN(S(=O)(=O)c2cccs2)C1)N1CCc2ccccc2C1 (stereo not given): 3.28
- Cc1cc(C(=O)N2CCN(c3ncccn3)CC2)cs1: -1.15
- CC(=O)Nc1ccc(S(=O)(=O)NCC(C)NS(=O)(=O)c2ccc(NC(C)=O)cc2)cc1 (stereo not given): -1.27
- COC(=O)c1cccc(NC(=O)CSc2nnc(COc3ccc(C#N)cc3)n2-c2ccccc2)c1: -3.02
- CC1CN(Cc2nc3c(c(=O)[nH]c(=O)n3C)n2CC(N)=O)CC(C)O1 (stereo not given): 0.67
- C=CCOc1nc2c(c(=O)n(C)c(=O)n2C)n1C: 1.33

Source: PubChem BioAssay
